Below, each entry is listed alongside its reported Ki.
molecular target: CB1 receptor (Rattus norvegicus); construct: membranes were prepared from rat forebrain membranes; from tissue; host or cells: rat forebrain membranes; experiment: CB1 receptor binding, rat forebrain membranes, [3H]CP-55,940 displacement; details: Table 2, 0.8 nM [3H]CP-55,940, read-out: Ki nM CB1
Provide only the numeric value, understood in nM.

Consider the worked cases shown below.
* CN1CCCCC1Cn1cc(C(=O)c2ccc3ccccc3n2)c2ccccc21 (stereo not shown) | 14.4
* CN1CCCCC1Cn1cc(C(=O)c2cc(C(=O)O)ccc2I)c2ccccc21 (stereo not shown) | 240
* CN1CCCCC1Cn1cc(C(=O)c2cc([N+](=O)[O-])ccc2I)c2ccccc21 (racemic) [2-32(R,S)] | 239

Exercise: Can you look up the measured Ki of CN1CCCCC1Cn1cc(C(=O)c2cnc3ccccc3n2)c2ccccc21 (stereo not shown) for me?
Solution: 158

---

target: human CB2 receptors (Homo sapiens); construct: using the below described procedure with human tissue samples; from tissue; assay: Binding affinity to human CB2 receptors, human tissue samples
Sequence (P34972 whole entry): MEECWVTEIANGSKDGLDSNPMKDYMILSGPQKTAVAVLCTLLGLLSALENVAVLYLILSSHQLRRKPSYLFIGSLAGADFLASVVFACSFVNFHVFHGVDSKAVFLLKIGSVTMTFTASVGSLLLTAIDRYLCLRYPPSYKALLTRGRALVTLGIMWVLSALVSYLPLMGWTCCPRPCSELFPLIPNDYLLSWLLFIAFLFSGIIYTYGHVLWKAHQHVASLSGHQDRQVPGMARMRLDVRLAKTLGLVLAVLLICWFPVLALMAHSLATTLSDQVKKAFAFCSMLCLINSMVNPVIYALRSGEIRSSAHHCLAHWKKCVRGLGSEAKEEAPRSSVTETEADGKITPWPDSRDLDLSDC
value-type: Ki (nM)
Provide only the numeric value, understood in nM.

* CN1CCCCC1Cn1cc(C(=O)C23CC4CC(CC(C4)C2)C3)c2ccccc21 (centres unmarked) [2-33] | 2.32

Exercise: Provide the documented Ki with human CB2 receptors (Homo sapiens) as the system for CN1CCCC[C@@H]1Cn1cc(C(=O)c2cc([N+](=O)[O-])ccc2I)c2ccccc21 [2-32(R)]
Solution: 6.69

---

Molecular target: CB2 receptor (Mus musculus)
Construct: membranes were prepared from frozen mouse spleen; from tissue; host or cells: frozen mouse spleen membranes
Sequence (P47936 whole entry): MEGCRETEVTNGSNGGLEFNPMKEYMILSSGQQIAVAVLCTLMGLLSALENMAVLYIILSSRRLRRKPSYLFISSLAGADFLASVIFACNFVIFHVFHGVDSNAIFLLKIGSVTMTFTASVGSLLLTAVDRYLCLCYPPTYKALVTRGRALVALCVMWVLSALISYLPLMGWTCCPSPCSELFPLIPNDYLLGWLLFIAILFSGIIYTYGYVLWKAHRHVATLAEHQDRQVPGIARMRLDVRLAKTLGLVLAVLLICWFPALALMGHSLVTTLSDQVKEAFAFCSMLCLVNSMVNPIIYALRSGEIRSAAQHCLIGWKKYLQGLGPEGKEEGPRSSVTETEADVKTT
Assay: CB2 receptor binding, mouse spleen membranes, [3H]CP-55,940 displacement
Conditions: Table 1; mouse spleen membranes; read-out: Ki nM CB2
Experimental: The prepared cannabinoid compounds were tested for CB2 receptor binding affinity and for CB1 receptor affinity (to determine selectivity for the CB2 receptor). […] The treated membranes were subsequently used in the binding assay described below. […] Radioactivity was detected using MicroScint 20 scintillation cocktail added directly to the dried filterplates, and the filterplates were counted using a Packard Instruments Top-Count. Nonspecific binding was assessed using 100 nM CP-55,940. […]
value-type: Ki (nM)
Provide only the numeric value, understood in nM.

Exercise: Provide the documented Ki with CB2 receptor (Mus musculus) as the system for CN1CCCCC1Cn1cc(C(=O)c2cc([N+](=O)[O-])ccc2I)c2ccccc21 (racemic) [2-7(R, S)]
Solution: 5.7

---

target: CB2 receptor (Mus musculus); construct: membranes were prepared from frozen mouse spleen; from tissue; host or cells: frozen mouse spleen membranes; assay: CB2 receptor binding, mouse spleen membranes, [3H]CP-55,940 displacement; conditions: Ki nM CB2, Table 1; mouse spleen membranes
value-type: Ki (nM)
Provide only the numeric value, understood in nM.

Exercise: Provide the documented Ki with CB2 receptor (Mus musculus) as the system for CN1CCCC[C@@H]1Cn1cc(C(=O)c2cc([N+](=O)[O-])ccc2I)c2ccccc21 [2-7(R)]
Solution: 0.53

---

target: CB1 receptor (Rattus norvegicus, UniProt P20272); construct: membranes were prepared from rat forebrain membranes; from tissue; host or cells: rat forebrain membranes; experiment: CB1 receptor binding, rat forebrain membranes, [3H]CP-55,940 displacement; conditions: Ki nM CB1, Table 2, 0.8 nM [3H]CP-55,940
Sequence (P20272 whole entry): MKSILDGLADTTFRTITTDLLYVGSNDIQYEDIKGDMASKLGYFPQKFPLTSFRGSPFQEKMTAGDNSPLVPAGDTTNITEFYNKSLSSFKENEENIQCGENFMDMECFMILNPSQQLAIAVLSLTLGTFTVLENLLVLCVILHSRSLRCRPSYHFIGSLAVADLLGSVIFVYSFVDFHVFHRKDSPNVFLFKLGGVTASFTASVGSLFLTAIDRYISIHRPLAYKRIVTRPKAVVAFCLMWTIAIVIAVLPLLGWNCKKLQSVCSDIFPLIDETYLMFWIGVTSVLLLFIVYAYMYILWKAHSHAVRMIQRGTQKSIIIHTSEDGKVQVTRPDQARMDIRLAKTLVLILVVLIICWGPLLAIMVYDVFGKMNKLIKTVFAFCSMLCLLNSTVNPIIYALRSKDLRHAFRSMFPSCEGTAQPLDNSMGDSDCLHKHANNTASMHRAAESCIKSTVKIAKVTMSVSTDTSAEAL
Below, each entry is listed alongside its reported Ki.
In your response, put the unit directly after the numeric value.

Consider the worked cases shown below.
• CN1CCCCC1Cn1cc(C(=O)C23CC4CC(CC(C4)C2)C3)c2ccccc21 (stereo not shown) = 11.9 nM
• CN1CCCC[C@H]1Cn1cc(C(=O)c2ccccc2I)c2ccccc21 [2-34(S)] = 14.2 nM
• CN1CCCC[C@@H]1Cn1cc(C(=O)c2cc([N+](=O)[O-])ccc2I)c2ccccc21 [2-32(R)] = 140 nM

Exercise: Can you look up the measured Ki of CN1CCCC[C@@H]1Cn1cc(C(=O)c2ccccc2I)c2ccccc21 [2-34(R)] for me?
Solution: 1.57 nM
